# Organism: Homo sapiens
# Assay explanation: Inhibition of LTB4 biosynthesis at 1 uM, in calcium ionophore-stimulated human whole blood leukocyte (HBL) assay.
# Format: functional
Kindly state inhibition at 1 µM for each of the entries shown.
Give bare numbers, in %.

Below, each entry is followed by its recorded inhibition at 1 µM result.
Cc1oc(-c2ccccc2)nc1CCOc1ccc(CN(O)C(N)=O)cc1F 71
Cc1oc(-c2ccccc2)nc1COc1ccc(CN(O)C(N)=O)cc1Cl 31
Cc1oc(-c2ccc(SC(F)(F)F)cc2)nc1CCOc1ccc(CN(O)C(N)=O)cc1 50

I have 3 compounds here; please give me inhibition at 1 µM for each one.
1. Cc1oc(-c2cccc3ccccc23)nc1CCOc1ccc(CN(O)C(N)=O)cc1
2. NC(=O)N(O)Cc1ccc(OCCc2noc(-c3ccccc3)n2)cc1
3. NC(=S)N(O)Cc1cccc(OCc2coc(-c3ccc(F)cc3)n2)c1

1. 42
2. 70
3. 61
